Readout Type: logP
Answer field: number only, no words.

[ask] Return logP (reported value) for this compound: O=C(O)c1cccnc1
[reply] -0.46

[ask] Tell me its logP given O=C(Nc1ccccc1)c1ccccc1O as the entry.
[reply] 3.25

[ask] // fetch logP given entry CCCCCCCC(=O)O
[reply] 3.05

[ask] Specify measured logP for Oc1ccc(Cl)cc1Cc1cc(Cl)ccc1O .
[reply] 4.26

[ask] Complete the entry with logP for CCC(=O)O
[reply] 0.32

[ask] Provide one value: measured logP of C=CCCCCCCCCC(=O)O
[reply] 3.86

[ask] Answer with the recorded logP of CCCCC(=O)O only.
[reply] 1.39

[ask] Identify measured logP associated with O=C(O)c1cc(I)cc(I)c1O
[reply] 4.2

---

Assay: method code SF, from DOI: 10.1002/tera.1420200312, PMID: 120615
Conditions: pH 7.4
Record form. Attribute: logD. Fill in for each entry.
Respond with the number and no other words.

[ask] Identify measured logD corresponding to CC/C(=C(/CC)c1ccc(O)cc1)c1ccc(O)cc1
[reply] 4.76

[ask] State, in one line, measured logD of Cc1cc(O)c(C(C)C)cc1Cl
[reply] 3.92

[ask] Identify the reported logD for the following entry. Cc1ccccc1O
[reply] 1.93
